The reported measurements were obtained from patent US5502035A.

Measured Kb accompanies every entry in the list below.
target: LHRH (Rattus norvegicus, UniProt P30969); construct: endogenous in cells; host or cells: rat pituitary cells (own knowledge of the cited Haviv 1989 method); experiment: in vitro test for LHRH antagonist potency (pA2); assay type: cell-based; settings: negative logarithm of the antagonist concentration required to shift the response curve produced by the agonist leuprolide to two-fold higher concentration
Sequence (P30969 whole entry): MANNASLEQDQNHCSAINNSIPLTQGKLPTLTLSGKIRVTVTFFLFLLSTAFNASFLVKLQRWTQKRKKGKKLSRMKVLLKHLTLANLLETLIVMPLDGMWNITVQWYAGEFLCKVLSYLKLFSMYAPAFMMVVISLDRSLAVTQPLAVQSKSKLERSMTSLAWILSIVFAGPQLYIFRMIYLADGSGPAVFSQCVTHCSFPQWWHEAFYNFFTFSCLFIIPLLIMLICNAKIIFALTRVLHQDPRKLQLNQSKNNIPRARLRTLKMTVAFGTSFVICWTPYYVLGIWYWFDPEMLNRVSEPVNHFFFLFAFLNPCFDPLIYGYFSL
Non-standard residues stand in square brackets, D forms with d. Residues, ends and D or L forms follow the SMILES beside them. *: point of attachment. Shikimoyl = O=C(C1=C[C@@H](O)[C@@H](O)[C@H](O)C1)*; dPhe(4-Cl) = N[C@H](Cc1ccc(Cl)cc1)C(=O)O; d1Nal = N[C@H](Cc1cccc2ccccc12)C(=O)O; d2Nal = N[C@H](Cc1ccc2ccccc2c1)C(=O)O; Lys(iPr) = CC(C)NCCCC[C@H](N)C(=O)O; NMeY = CN[C@@H](Cc1ccc(O)cc1)C(=O)O; d3Pal = N[C@H](Cc1cccnc1)C(=O)O; Nicotinoyl = O=C(c1cccnc1)*
ATTRIBUTE MEASURED: Kb (nM)

{"COMPOUND": "CC(C)C[C@H](NC(=O)[C@@H](CCCCNC(=O)c1cccnc1)NC(=O)[C@H](Cc1ccc(O)cc1)N(C)C(=O)[C@H](CO)NC(=O)[C@@H](Cc1cccnc1)NC(=O)[C@@H](Cc1ccc(Cl)cc1)NC(=O)[C@@H](Cc1ccc2ccccc2c1)NC(=O)c1cccnc1)C(=O)N[C@@H](CCCCNC(C)C)C(=O)N1CCC[C@H]1C(=O)N[C@H](C)C(N)=O [Example 72d] (Nicotinoyl-[d2Nal][dPhe(4-Cl)][d3Pal]S[NMeY][dK](Nicotinoyl)L[Lys(iPr)]P[dA]-NH2)", "ATTRIBUTE MEASURED": "Kb", "UNIT OF MEASURE": "nM", "MEASUREMENT": 0.00871}
{"COMPOUND": "CC(C)C[C@H](NC(=O)[C@@H](CCCCNC(=O)C1=C[C@@H](O)[C@@H](O)[C@H](O)C1)NC(=O)[C@H](Cc1ccc(O)cc1)N(C)C(=O)[C@H](CO)NC(=O)[C@@H](Cc1cccc2ccccc12)NC(=O)[C@@H](Cc1ccc(Cl)cc1)NC(=O)[C@@H](Cc1ccc2ccccc2c1)NC(=O)CNC(=O)C1=C[C@@H](O)[C@@H](O)[C@H](O)C1)C(=O)N[C@@H](CCCNC(=N)N)C(=O)N1CCC[C@H]1C(=O)N[C@H](C)C(N)=O [Example 16] (Shikimoyl-G[d2Nal][dPhe(4-Cl)][d1Nal]S[NMeY][dK](Shikimoyl)LRP[dA]-NH2)", "ATTRIBUTE MEASURED": "Kb", "UNIT OF MEASURE": "nM", "MEASUREMENT": 0.0288}
